B1: Osa-1-4 twister ribozyme (parent)
chain: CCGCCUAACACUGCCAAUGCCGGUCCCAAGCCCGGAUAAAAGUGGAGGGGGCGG

# Variants of: B1
# Assay details: self-cleavage, relative activity (ratio to wild type); higher = more cleavage; co-transcriptional
Property name: self-cleavage
Just the number, please.

In: Using the record for G34U U37G , report its self-cleavage.
Out: 0.87

In: Using the record for C15G G35C , report its self-cleavage.
Out: 0.14

In: Using the record for C11U G35U , report its self-cleavage.
Out: 0.69

In: Using the record for A36U G54A , report its self-cleavage.
Out: 1.01

In: Using the record for A29U C9U , report its self-cleavage.
Out: 0.05
